Reported tissue uptake dose at 1 h values for the following molecules.
Experiment: Biodistribution experiments in normal mice after i.v. injection
Assay type: in vivo
Details: male, ddY, mouse, in vivo, iv, total radioactivity, Biodistribution of radioactivity, Spleen
Where a SMILES comes first, the peptide text is derived from it. [ ]: non-standard residue; d: D form. The star is where a group is joined. DOTA = O=C(O)CN1CCN(CC(=O)O)CCN(CC(=O)*)CCN(CC(=O)O)CC1
Field format: number, assumed %ID, no unit text.

In the examples that follow, each entry is paired with its recorded tissue uptake dose at 1 h.
O=C(O)CC[C@@H](NC(=O)[C@@H](CCC(=O)O)NC(=O)[C@@H](CCC(=O)O)NC(=O)[C@@H](CCC(=O)O)NC(=O)[C@@H](CCC(=O)O)NC(=O)[C@@H](CCC(=O)O)NC(=O)[C@@H](CCC(=O)O)NC(=O)[C@@H](CCC(=O)O)NC(=O)[C@@H](CCC(=O)O)NC(=O)[C@@H](CCC(=O)O)NC(=O)[C@@H](CCC(=O)O)NC(=O)[C@@H](CCC(=O)O)NC(=O)[C@@H](CCC(=O)O)NC(=O)[C@@H](CCC(=O)O)NC(=O)CN1CCN(CC(=O)O)CCN(CC(=O)O)CCN(CC(=O)O)CC1)C(=O)O [^67Ga-DOTA-(D-Glu)14, metal not drawn]    0.06
O=C(O)CC[C@H](NC(=O)[C@H](CCC(=O)O)NC(=O)[C@H](CCC(=O)O)NC(=O)[C@H](CCC(=O)O)NC(=O)[C@H](CCC(=O)O)NC(=O)[C@H](CCC(=O)O)NC(=O)[C@H](CCC(=O)O)NC(=O)[C@H](CCC(=O)O)NC(=O)[C@H](CCC(=O)O)NC(=O)[C@H](CCC(=O)O)NC(=O)[C@H](CCC(=O)O)NC(=O)[C@H](CCC(=O)O)NC(=O)[C@H](CCC(=O)O)NC(=O)[C@H](CCC(=O)O)NC(=O)CN1CCN(CC(=O)O)CCN(CC(=O)O)CCN(CC(=O)O)CC1)C(=O)O [^67Ga-DOTA-(L-Glu)14, metal not drawn]    0.1

// switching to the query molecule
[ask] Please give measured tissue uptake dose at 1 h of the following entry: O=C(O)C[C@@H](NC(=O)[C@@H](CC(=O)O)NC(=O)CN1CCN(CC(=O)O)CCN(CC(=O)O)CCN(CC(=O)O)CC1)C(=O)O [^67Ga-DOTA-(D-Asp)2, metal not drawn] ({DOTA}-[dD]-[dD]-OH)
[reply] 0.24

---

Test: Biodistribution experiments in normal mice after i.v. injection
Type: in vivo
Details: male, ddY, mouse, in vivo, iv, total radioactivity, Biodistribution of radioactivity, Brain
Where a SMILES comes first, the peptide text is derived from it. [ ]: non-standard residue; d: D form. The star is where a group is joined. DOTA = O=C(O)CN1CCN(CC(=O)O)CCN(CC(=O)*)CCN(CC(=O)O)CC1
Reported tissue uptake dose at 3 h values for the following compounds.
Field format: number, assumed %ID, no unit text.

O=C(O)CC[C@@H](NC(=O)[C@@H](CCC(=O)O)NC(=O)[C@@H](CCC(=O)O)NC(=O)[C@@H](CCC(=O)O)NC(=O)[C@@H](CCC(=O)O)NC(=O)[C@@H](CCC(=O)O)NC(=O)[C@@H](CCC(=O)O)NC(=O)[C@@H](CCC(=O)O)NC(=O)[C@@H](CCC(=O)O)NC(=O)[C@@H](CCC(=O)O)NC(=O)[C@@H](CCC(=O)O)NC(=O)[C@@H](CCC(=O)O)NC(=O)[C@@H](CCC(=O)O)NC(=O)[C@@H](CCC(=O)O)NC(=O)CN1CCN(CC(=O)O)CCN(CC(=O)O)CCN(CC(=O)O)CC1)C(=O)O [^67Ga-DOTA-(D-Glu)14, metal not drawn]    0.01

[ask] Please give measured tissue uptake dose at 3 h of the following entry: O=C(O)C[C@@H](NC(=O)[C@@H](CC(=O)O)NC(=O)[C@@H](CC(=O)O)NC(=O)[C@@H](CC(=O)O)NC(=O)[C@@H](CC(=O)O)NC(=O)[C@@H](CC(=O)O)NC(=O)[C@@H](CC(=O)O)NC(=O)[C@@H](CC(=O)O)NC(=O)CN1CCN(CC(=O)O)CCN(CC(=O)O)CCN(CC(=O)O)CC1)C(=O)O [^67Ga-DOTA-(D-Asp)8, metal not drawn] ({DOTA}-[dD][dD][dD][dD][dD][dD][dD][dD]-OH)
[reply] 0.01
